- assayed-system: T1, extracellular domain of cyno ILT3 (cynoILT3-ECD) (cynomolgus monkey)
- T1 chain: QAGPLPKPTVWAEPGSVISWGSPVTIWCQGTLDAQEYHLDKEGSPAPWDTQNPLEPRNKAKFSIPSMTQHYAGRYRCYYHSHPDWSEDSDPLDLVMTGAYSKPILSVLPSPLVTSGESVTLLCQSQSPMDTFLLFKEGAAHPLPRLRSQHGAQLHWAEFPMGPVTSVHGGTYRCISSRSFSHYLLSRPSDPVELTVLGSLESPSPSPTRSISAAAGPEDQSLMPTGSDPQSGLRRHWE
- method-notes: SPR (Biacore), antibody captured via anti-Fc on CM5 chip, soluble ILT3-ECD injected
Some binders, each annotated with its measured koff.
Answer format: numeric, s⁻¹ implied, no suffix.

Worked set:
>>> val("Hz48A6 B0/C2 (antibody, V domains shown) VH: EVQLVESGGGLVQPGGSLRLSCAASGFTFSSYGMSWVRQAPGKGLEWVATISSGGTYTFYPDSVKGRFTISRDNAKNSLYLQMNSLRAEDTAVYYCARRGWLLHYYAMDYWGQGTSVTVSS VL: DIQLTQSPSFLSASVGDRVTITCRPSESVDSFGNSFMHWFQQKPGKAPKLLIYLSSKLESGVPSRFSGSGSGTEFTLTISSLQPEDFATYYCQQHNEDPFTFGQGTKVEIK")
0.097
>>> val("48A6 chimera (antibody, V domains shown, also called parental chimeric 48A6) VH: EVQLVESGGDLMKPGGSLKLSCAASGFTFSSYGMSWVRQTPDKRLEWVATISSGGTYTFYPDSVKGRFTISRDNAKNTLYLQMSSLKSEDTAMYYCARRGWLLHYYAMDYWGQGTSVTVSS VL: NIVLTQSPASLAVSLGQRATISCRPSESVDSFGNSFMHWFQQKPGQPPKLLIYLSSKLESGVPARFSGSGSRTDFTLTIDPVEADDAATYYCQQHNEDPFTFGSGTKLEIK")
0.11
>>> val("Hz45G10 A2/A4 (antibody, V domains shown) VH: EVQLVESGGGLVQPGGSLRLSCAASGFTFSDYGMHWVRQAPGKGLEWVAYIFSGSSTIYYADTVKGRFTISRDNAKNSLYLQMNSLRAEDTAVYYCARADGRGAMDYWGQGTTVTVSS VL: DIQMTQSPSSLSASVGDRVTITCRASQDISKFLNWYQQKPGKAPKLLIYYTSRLHSGVPSRFSGSGSGTDFTFTISSLQPEDIATYFCQQGNTLPWTFGGGTKLEIK")
0.02

input: GET /values?readout=koff&item= Hz48A6 B1/C2 (antibody, V domains shown) VH: EVQLVESGGGLMQPGGSLRLSCAASGFTFSSYGMSWVRQAPGKGLEWVATISSGGTYTFYPDSVKGRFTISRDNAKNSLYLQMNSLRAEDTAVYYCARRGWLLHYYAMDYWGQGTSVTVSS VL: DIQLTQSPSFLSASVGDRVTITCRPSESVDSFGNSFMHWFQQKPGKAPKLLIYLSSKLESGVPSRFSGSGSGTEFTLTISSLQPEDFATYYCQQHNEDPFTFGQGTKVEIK
output: 0.092

Origin of values: patent US20240043533A1
